tested on: OVCAR-4; assay: NCI tumour cell line growth inhibition, 48 h
Activity calls are given as the source filed them. Cut-off read from the data, not from the text of the source: active = GI50 up to about 1.1 µM and inactive = higher.
QUANTITY MEASURED: GI50

1) O=C(Nc1cccc2ccccc12)c1cc2ccccc2oc1=O : 78 µM (inactive)

# molecule c1ccc(/N=C2\SC(c3ccccc3)CN2C23CC4CC(CC(C4)C2)C3)cc1 (stereo not given) ; its GI50 = > 100 µM (inactive)

# molecule O=c1ccc2nc3cc(Br)ccc3sc-2c1 ; its GI50 = 29.4 µM (inactive)

# molecule Nc1ccc(S(=O)(=O)NCc2nccs2)cc1 ; its GI50 = 29.3 µM (inactive)

# molecule O=S(=O)(O)C(O)/C=C/c1ccccc1 (stereo not given) ; its GI50 = > 100 µM (inactive)

----------
system: HOP-92; test: NCI tumour cell line growth inhibition, 48 h
Active and inactive are the calls of the source. Rule as the data show it: active = GI50 up to about 1.1 µM and inactive = higher.
Pick from Yes (active), No (inactive) when you respond.

1. Cc1c(S(=O)(=O)c2ccccc2)c(N)n(Cc2ccccc2)c1C : No
2. c1ccc(/N=C2\SC(c3ccccc3)CN2C23CC4CC(CC(C4)C2)C3)cc1 (configuration not stated) : No
3. CN(C)/C(=N\C#N)NCc1ccccc1 : No
4. O=C(CCC1CCCCC1)NCc1ccc(C(=O)O)cc1 : No
5. Cc1ccc2c(c1)C(=O)N(N(C)C)CC(=O)N2 : No

Request: Would you mind telling me which call this test gave CC(C)(C)N1CC1CNC(=O)C(=O)NCC1CN1C(C)(C)C (configuration not stated) ?
Result: No

Request: Would you mind telling me which call this test gave COc1ccc([Se]c2ccc(OC)cc2)cc1 ?
Result: No

Request: Would you mind telling me which call this test gave COc1c(Br)cc2c(c1OC)C(Br)CCC(Br)(Br)C2=O (configuration not stated) ?
Result: No

Request: Would you mind telling me which call this test gave CC(C)(C)c1cc(O)ccc1O [E319] ?
Result: No

----------
test system: HOP-62; assay: NCI tumour cell line growth inhibition, 48 h
Active and inactive are the calls of the source. Rule as the data show it: active = GI50 up to about 1.1 µM and inactive = higher.
QUANTITY MEASURED: GI50

# compound COc1cc2c(cc1OC)CN1CCc3ccccc3CC1C2 (configuration not stated) ; its GI50 = 65.8 µM (inactive)

# compound CC(C)(C)CN1[C@@H]2CCCC[C@H]2N(CC(C)(C)C)P1(=O)C(O)/C=C/c1ccccc1 (some centres not stated) ; its GI50 = 50.2 µM (inactive)

# compound CC1(c2ccccc2Cl)C(C#N)C(=O)NC(=O)C1C#N (configuration not stated) ; its GI50 = 30.6 µM (inactive)

# compound COC(=O)c1c(CC(Cc2ccc3c(c2)CCCC3)C(=O)OC)ccc2c1CCCC2 (configuration not stated) ; its GI50 = > 100 µM (inactive)

# compound O=C(Nc1cccc2ccccc12)c1cc2ccccc2oc1=O ; its GI50 = 14.5 µM (inactive)

# compound O=c1[nH]nc(-c2ccccc2)n1/N=C\c1ccccc1 ; its GI50 = > 100 µM (inactive)

# compound Nc1nc(Cl)nc2c1ncn2C1CCC(CO)O1 (configuration not stated) ; its GI50 = > 100 µM (inactive)

# compound CC(O[Si](c1ccccc1)(c1ccccc1)C(C)(C)C)[C@H](NC(=O)OC(C)(C)C)C(=O)O[Si](c1ccccc1)(c1ccccc1)C(C)(C)C (some centres not stated) ; its GI50 = 18.2 µM (inactive)

# compound COC1CCC(O)C(CO)O1 (configuration not stated) ; its GI50 = > 100 µM (inactive)

# compound NC(Cc1ccc(OCc2ccccc2)cc1)C(=O)NC(Cc1ccccc1)C(=O)Oc1c(Cl)c(Cl)c(Cl)c(Cl)c1Cl (configuration not stated) ; its GI50 = 16.6 µM (inactive)

----------
Each entry below carries its reported GI50.
test system: OVCAR-5; assay: NCI tumour cell line growth inhibition, 48 h
The source made the active and inactive calls. Cut-off read from the data, not from the text of the source: active = GI50 up to about 1.1 µM and inactive = higher.

Some compounds with known GI50 results, for comparison:
1. C=C(C(=O)OC)[C@@H]1C[C@@H](OC(C)=O)C2=C[C@H](C[C@@]3(C)O[C@@H]3C3=CC(C)=C(O3)[C@H]1OC(C)=O)OC2=O : 17.9 µM (inactive)
2. O=C(CC(C(=O)c1cccs1)c1ccsc1)c1ccc(Cl)cc1 (stereo not drawn) : > 100 µM (inactive)

As a next step, examine the compound that follows.
# compound COc1cc([C@@H]2c3cc4c(c(O)c3C[C@H]3COC(=O)[C@@H]32)OCO4)cc(OC)c1OC ; its GI50 = 21.4 µM (inactive)

----------
Each entry below carries its reported GI50.
tested on: 786-0; assay: NCI tumour cell line growth inhibition, 48 h
Calls of active or inactive are those of the source. Cut-off read from the data, not from the text of the source: active = GI50 up to about 1.1 µM and inactive = higher.

Some molecules with known GI50 results, for comparison:
1. C#CCSc1nc(-c2ccco2)n[nH]1 : > 100 µM (inactive)
2. CC(C)(C)c1cc(O)ccc1O : > 54.8 µM (inactive)
3. Cn1c2ccccc2c(=NNc2ccccc2C(=O)O)c2ccccc21 : 27.5 µM (inactive)

# molecule C#Cc1cccc(NC(=O)/C=C\C(=O)O)c1 ; its GI50 = > 100 µM (inactive)

# molecule Cc1cc(C)c(C)c(-n2[nH]c(=O)n(C)c2=O)c1C ; its GI50 = > 100 µM (inactive)

# molecule O=C(O)c1cc(-c2ccc3c(O)c(O)ccc3c2)ccc1O ; its GI50 = 31.7 µM (inactive)

----------
test system: SK-MEL-2; assay: NCI tumour cell line growth inhibition, 48 h
Calls of active or inactive are those of the source. Cut-off read from the data, not from the text of the source: active = GI50 up to about 1.1 µM and inactive = higher.
Pick from TRUE (active), FALSE (inactive) when you respond.

1) O=C(/C=C/c1ccccc1)c1cc(CN2CCOCC2)c(O)c(CN2CCOCC2)c1 : FALSE
2) CNc1ccc([S+]([O-])Nc2ccccc2)cc1 (centres undefined) : FALSE

Request: Would you mind telling me which call this test gave CC(C)(C)N1CC1CNC(=O)C(=O)NCC1CN1C(C)(C)C (centres undefined) ?
Result: FALSE

Request: Would you mind telling me which call this test gave Cc1ccc(S(=O)(=O)n2c3c(c4ccccc42)CCN2C(=O)C(S(=O)(=O)c4ccccc4)=CCC32)cc1 (centres undefined) ?
Result: TRUE

Request: Would you mind telling me which call this test gave COCN1C(=O)[C@@H]2C[C@@H](OC/C=C/CBr)CN2C(=O)c2ccccc21 ?
Result: FALSE

Request: Would you mind telling me which call this test gave Cc1nc2ccccc2n1Cc1nnc(-c2ccccc2)o1 ?
Result: FALSE

----------
Each entry below carries its reported GI50.
tested on: KM-20L2; experiment: NCI tumour cell line growth inhibition, 48 h
Activity calls are given as the source filed them. Cut-off read from the data, not from the text of the source: active = GI50 up to about 1.1 µM and inactive = higher.

Some molecules with known GI50 results, for comparison:
1. Cc1cccc(C(C)(C)C)c1NC(=O)C(=O)C(C(=O)/C=C\c1ccccc1)C1OC(=O)c2ccccc21 (stereo unspecified) : > 100 µM (inactive)
2. CCN(CC)CCSc1c2ccccc2nc2cc(NCC(=O)Nc3ccccc3-c3ccccc3NC(=O)CNc3ccc4c(SCCN(CC)CC)c5ccccc5nc4c3)ccc12 : > 100 µM (inactive)
3. N#CCCN(CCC#N)c1ccc(C(=O)NN)cc1 : > 100 µM (inactive)
4. O=S(=O)(O)C(O)/C=C/c1ccccc1 (stereo unspecified) : > 100 µM (inactive)
5. CNCC(=O)Nc1ccc2c(c1)C(=O)c1ccc(NC(=O)CNC)cc1C2=O : 5.3 µM (inactive)

As a next step, examine the molecule that follows.
# molecule O=C(COC(=O)c1cccc2c(=O)c3ccccc3[nH]c12)Nc1ccc(S(=O)(=O)Nc2ncccn2)cc1 ; its GI50 = 65.9 µM (inactive)

----------
system: A498; assay: NCI tumour cell line growth inhibition, 48 h
The source made the active and inactive calls. Cut-off read from the data, not from the text of the source: active = GI50 up to about 1.1 µM and inactive = higher.
QUANTITY MEASURED: GI50

1. COc1ccc(NC(=O)CSc2nnc(-c3ccc(/N=C\c4ccc(Cl)cc4)cc3)o2)cc1 : > 100 µM (inactive)
2. COCN1C(=O)[C@@H]2C[C@@H](OC/C=C/CBr)CN2C(=O)c2ccccc21 : 26.1 µM (inactive)
3. COc1cc(C2c3cc4c(cc3[C@@H](Nc3ccc5c(c3)OCO5)C3COC(=O)[C@H]23)OCO4)cc(OC)c1O (some centres undefined) : 0.333 µM (active)

As a next step, examine the molecule that follows.
Entry O=C(c1cccs1)N(C(=S)OCCOc1ccccc1)c1ccccc1 , A498 data, GI50 value: 25.5 µM (inactive)

----------
test system: HCC 2998; assay: NCI tumour cell line growth inhibition, 48 h
The source made the active and inactive calls. No stated cut-off is given here; in the data, active = GI50 up to about 1.1 µM and inactive = higher.
Pick from 1.0 = active, 0.0 = inactive when you respond.

Some entries whose results are on file:
1) CC1OC(O[C@H]2C3C=CO[C@@H](OC4OC(CO)C(O)C(O)C4O)C3[C@@]3(COC(=O)/C=C/c4ccccc4)O[C@@H]23)C(O)C(O)C1O (some centres not stated) : 0.0
2) O=C(Nc1ccc(Cl)cc1)c1cc(S(=O)(=O)N2CCNNC2=O)c(S)cc1Cl : 0.0
3) O=C(/C=C/c1ccccc1)c1cc(CN2CCOCC2)c(O)c(CN2CCOCC2)c1 : 0.0
4) O=C(COC(=O)c1cccc2c(=O)c3ccccc3[nH]c12)Nc1ccc(S(=O)(=O)Nc2ncccn2)cc1 : 0.0
5) O=C(CCC1CCCCC1)NCc1ccc(C(=O)O)cc1 : 0.0
6) CN(C)CCCNC(=O)N/N=C/c1ccccn1 : 0.0

Now look at this entry.
Request: Would you mind telling me which call this test gave CSc1ccc(/C=C/C(=O)c2nc3ccccc3[nH]2)cc1 ?
Result: 0.0
